Measured growth inhibition, listed per entry for reference.
Test: NCI Yeast Anticancer Drug Screen. Data for the mlh1 rad18 strain (AID 175)
Settings: S. cerevisiae mlh1 rad18 strain growth inhibition; at 50.0 µM; hits give high values
Compounds without any hit were thinned out: in the full panel of roughly 79,000, 15% have a hit. Where a SMILES comes first, the peptide text is derived from it. [ ]: non-standard residue; d: D form. The star is where a group is joined. ξ: configuration not given here. dThr(3ξ) = CC(O)[C@@H](N)C(=O)O; dNMeL = CN[C@H](CC(C)C)C(=O)O; OBn = c1ccc(CO*)cc1; ξLac = CC(O)C(=O)O

| compound | growth inhibition / % |
| --- | --- |
| CCC1(O)CCCCC1 | -21.7 |
| COC(=O)c1ccccc1OC(=S)N(C)C | -17.4 |
| CC(C)(C)c1ccc(Sc2cccc3c2C(=O)c2c(Cl)cccc2C3=O)cc1 | -0.85 |
| O=C(O)C1Cc2c([nH]c3ccccc23)C=N1 (stereo not given) | 33.8 |
| CC(=O)O[C@]12CCCC1C1(O)C(O)CCCC12 (stereo not given in full) | -34.6 |
| Cc1ccc(N=Nc2c(O)c(S(=O)(=O)O)cc3cc(S(=O)(=O)O)ccc23)c(C)c1 | 2.55 |
| O=C1NC2=NN=C(c3ccc(Br)cc3)CN2NC12c1ccccc1-c1ccccc12 | 4.2 |
| COc1ccc(C(=O)c2cc(OC)c(OC)c(OC)c2)cc1OC | -10.4 |
| Cc1csc2[nH]c(=O)[nH]c(=O)c12 | 4.5 |
| CCCCNc1nc(NC2OCC(OC(C)=O)C(OC(C)=O)C2OC(C)=O)c(N=O)c(=O)n1C (stereo not given) | -2.9 |
| NC12CCC(CC1)C2 | -4.8 |
| S=C(SCc1nc(-c2ccc(Cl)cc2)no1)N1CCSCC1 | -9.4 |
| COC(=O)c1cccc2cnccc12 | 3.75 |
| C=CCn1ccc(=O)nc1SCc1ccccc1 | 0.05 |
| Cc1ccoc1 | 15.8 |
| CCCCCN(CCCCC)CC(O)c1ccc2cc3c(nc2c1)CCCC3 (stereo not given) | 1.5 |
| CN(C)Cc1cc(C(C)(C)C)cc(CN(C)C)c1O | -0.05 |
| COC(=O)N1CC2CC=CC(C2)c2ccccc21 (stereo not given) | -9.4 |
| CC(=O)OC(C)[C@@H](NC(=O)[C@@H](CC(C)C)N(C)C(=O)[C@@H]1CCCN1C(=O)C(C)O)C(=O)OCc1ccccc1 (stereo not given in full) (H-[ξLac]P[dNMeL][dThr(3ξ)](Ac)-OBn) | -37.3 |
| C=CCNC=O | -18.1 |
| CC1=C/C(=N\N(C)C)C(C(O)(C(F)(F)F)C(F)(F)F)C(C)(C)C1 (stereo not given) | -13 |
| CC(=O)OC1(C)N=NC2(CCCCC2)O1 (stereo not given) | -12.3 |
| CC1CCCCN1CCCO (stereo not given) | 17.4 |
| Cc1cc(CC(O)(c2ccccc2)c2ccccc2)nc2[nH]c(=O)ccc12 | -1.35 |
| N=C(N)SCCC(=O)O | -56.6 |

---

Measured growth inhibition, listed per entry for reference.
Assay: NCI Yeast Anticancer Drug Screen. Data for the mec2-1 strain (AID 157)
Conditions: S. cerevisiae mec2-1 strain, at 50.0 µM, hits give high values
About 79,000 compounds went through this panel and 15% of them were active in at least one assay; those are over-represented in the sample as a whole.

| compound | growth inhibition (%) |
| --- | --- |
| C1CSC[C@H]2COC[C@@H](CSCCS1)S2 | 4.25 |
| Nc1c(-c2nc3ccccc3[nH]2)sc(=S)n1-c1ccc(Cl)cc1 | -30.7 |
| CCCCS(=O)(=O)CCCC | 0.9 |
| c1ccc2[nH]c(-c3nc4ccccc4s3)cc2c1 | -4.45 |
| NC(=O)C(=O)c1ccccc1 | -27.1 |
| CCCCOc1ccc2nc(C)cc(N/N=C/c3ccc(OC)c4ccccc34)c2c1 | 19.6 |
| O=Cc1cc(C=O)c2ccc(=O)[nH]c2n1 | 0.5 |
| CN(CCO)CC(O)Cn1cnc2ncnc(N)c21 (configuration not stated) | 12 |
| Cc1cc([N+](=O)[O-])ccc1N=Nc1ccc([N+](=O)[O-])cc1C | -1.9 |
| Nc1nc(N)c2cc(N3CCCC3c3ccc(Cl)cc3)ccc2n1 (configuration not stated) | 92.5 |
| Nc1cccc(CCc2nc(N)nc(N)c2-c2ccc(Cl)cc2)c1 | 21.6 |
| COC1OC(C(C)Br)C2OC(C)(C)OC12 (configuration not stated) | 21.4 |
